Taken from patent US12568972B2.

Tested on: Chenopodiaceae
Test summary: Post-emergence test, weed control effect
Type: in vivo
Stated conditions: 504 h, Dose 300 g/ha, after 3 weeks, fresh weight inhibition, read-out: activity level of harmful plant destruction (growth inhibition rate), Chenopodiaceae

>  <Input smiles>
Oc1cc(C(F)(F)F)nnc1-c1cccnc1F

>  <Tested system>
Chenopodiaceae

>  <inhibition at 300 g/ha [%]>
100

$$$$
>  <Input smiles>
Oc1cc(C(F)(F)F)nnc1-c1ccc(F)nc1

>  <Tested system>
Chenopodiaceae

>  <inhibition at 300 g/ha [%]>
100

$$$$
>  <Input smiles>
Oc1cc(C(F)(F)F)nnc1-c1ccc(F)c(F)c1

>  <Tested system>
Chenopodiaceae

>  <inhibition at 300 g/ha [%]>
100

$$$$
>  <Input smiles>
Oc1cc(C(F)(F)F)nnc1-c1cnc(F)c(Cl)c1

>  <Tested system>
Chenopodiaceae

>  <inhibition at 300 g/ha [%]>
100

$$$$
>  <Input smiles>
Cc1cc(-c2nnc(C(F)(F)F)cc2O)n(C)n1

>  <Tested system>
Chenopodiaceae

>  <inhibition at 300 g/ha [%]>
100

$$$$
>  <Input smiles>
Oc1cc(C(F)(F)F)nnc1-c1cc(F)cc(F)c1

>  <Tested system>
Chenopodiaceae

>  <inhibition at 300 g/ha [%]>
100

$$$$
>  <Input smiles>
Oc1cc(C(F)(F)F)nnc1-c1ccc(C(F)(F)F)cc1F

>  <Tested system>
Chenopodiaceae

>  <inhibition at 300 g/ha [%]>
100

$$$$
>  <Input smiles>
Oc1cc(C(F)(F)F)nnc1-c1ccc(Cl)cc1

>  <Tested system>
Chenopodiaceae

>  <inhibition at 300 g/ha [%]>
100

$$$$
>  <Input smiles>
Oc1cc(C(F)(F)F)nnc1-c1ccnc(F)c1

>  <Tested system>
Chenopodiaceae

>  <inhibition at 300 g/ha [%]>
100

$$$$
>  <Input smiles>
Oc1cc(C(F)(F)F)nnc1-c1ccc(F)nc1F

>  <Tested system>
Chenopodiaceae

>  <inhibition at 300 g/ha [%]>
100

$$$$
>  <Input smiles>
Oc1cc(C(F)(F)F)nnc1-c1cccnc1

>  <Tested system>
Chenopodiaceae

>  <inhibition at 300 g/ha [%]>
100

$$$$
>  <Input smiles>
Oc1cc(C(F)(F)F)nnc1C1=CCCCC1

>  <Tested system>
Chenopodiaceae

>  <inhibition at 300 g/ha [%]>
100

$$$$
>  <Input smiles>
Oc1cc(C(F)(F)F)nnc1-c1ccc(F)c(Cl)c1

>  <Tested system>
Chenopodiaceae

>  <inhibition at 300 g/ha [%]>
100

$$$$
>  <Input smiles>
Oc1cc(C(F)(F)F)nnc1-c1ccc(F)cc1

>  <Tested system>
Chenopodiaceae

>  <inhibition at 300 g/ha [%]>
100

$$$$

###

System: Rorippa indica
Test summary: Post-emergence test, weed control effect
Type: in vivo
Stated conditions: Dose 3000 g/ha, after 3 weeks
From the text: […]
Recorded weed control effect (activity level), Rorippa indica, one value per entry.
Measured attribute: weed control effect (activity level), Rorippa indica

>  <Input smiles>
Cn1ncc(Cl)c1-c1nnc(C(F)(F)F)cc1O

>  <Reported result>
10

$$$$
>  <Input smiles>
Oc1cc(CF)nnc1-c1cccnc1F

>  <Reported result>
10

$$$$
>  <Input smiles>
CC(C)n1nccc1-c1nnc(C(F)(F)F)cc1O

>  <Reported result>
10

$$$$
>  <Input smiles>
Oc1cc(C(F)(F)F)nnc1-c1cncc(F)c1

>  <Reported result>
10

$$$$
>  <Input smiles>
Oc1cc(C(F)(F)F)nnc1-c1ccc2ncccc2c1

>  <Reported result>
10

$$$$
